Consider the following sequences and their measured recombinant UMI read abundance (log10) readings.
Experiment: recombinant UMI read abundance after kanamycin selection (control-corrected) (log10(CPM+1)); higher = more efficient recombination; extreme values may be limits of the assay; sequences stand for … in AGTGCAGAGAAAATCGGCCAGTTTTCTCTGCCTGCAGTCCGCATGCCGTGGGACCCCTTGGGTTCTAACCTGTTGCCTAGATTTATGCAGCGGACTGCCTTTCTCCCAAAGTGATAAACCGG…AGGTTGGTTTCACT; site = the 11-nt donor;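 also: IS621 bridge recombinase in Escherichia coli cells against a fixed T5 target plasmid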

For orientation, consider the following solved cases.
[
  {
    "SEQUENCE CHAIN": "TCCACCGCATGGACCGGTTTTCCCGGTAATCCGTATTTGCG (site TCCACCGCTTG)",
    "REPORTED METRIC": "recombinant UMI read abundance (log10)",
    "EXPERIMENTAL RESULT": 0
  },
  {
    "SEQUENCE CHAIN": "CGCCGTTCATGGACCGGTTTTCCCGGTAATCCGTATTTGCT (site CGCCGTCCTAG)",
    "REPORTED METRIC": "recombinant UMI read abundance (log10)",
    "EXPERIMENTAL RESULT": 0.00374
  }
]

recombinant UMI read abundance (log10) in this record for ATTGACACATGGACCGGTTTTCCCGGTAATCCGTATTTGGT (site ATTGATACTAC) : 0.459

recombinant UMI read abundance (log10) in this record for GATGTATCATGGACCGGTTTTCCCGGTAATCCGTATTTGCA (site GATGTATCTTG) : 2.3

recombinant UMI read abundance (log10) in this record for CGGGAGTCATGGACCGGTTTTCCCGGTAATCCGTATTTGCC (site CGGAAGTCTGG) : 2.67

recombinant UMI read abundance (log10) in this record for TTAGCGGCATGGACCGGTTTTCCCGGTAATCCGTATTTGTG (site TTAGCTGCTCA) : 0.0387

recombinant UMI read abundance (log10) in this record for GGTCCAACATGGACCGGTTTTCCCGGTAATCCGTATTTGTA (site GGTCCTACTTA) : 0.00929

recombinant UMI read abundance (log10) in this record for AGCTTTTCATGGACCGGTTTTCCCGGTAATCCGTATTTGAC (site AGCGTTTCTGT) : 0

recombinant UMI read abundance (log10) in this record for CCTATGGCATGGACCGGTTTTCCCGGTAATCCGTATTTGGT (site CCTATGGCTAC) : 0.012
